All values here come from the RNAGym collection of RNA variant scans (doi:10.1038/nmeth.2970).

B1: NELF-E aptamer (parent)
chain: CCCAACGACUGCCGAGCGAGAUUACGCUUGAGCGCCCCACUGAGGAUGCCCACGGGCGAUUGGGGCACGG

# Variants of: B1
# Protocol: HiTS-RAP
# Setup Conditions: with NELF-E (Drosophila)
Property Name: Kd (nM)
Numbers only, in nM.

Some solved entries appear below for comparison.
A24G U28G ... 8.97
A8U C9G ... 6.03
A4G C9U ... 5.95
C12G C13U ... 5.88
A4G G18U ... 5.96

According to the records, this variant G18A A24G displays Kd of 5.85
